The measured values listed here are drawn from PubChem BioAssay (NCI).

Measured TGI of individual entries
Test system: UACC-257 melanoma
method.notes: NCI tumour cell line growth inhibition, 48 h
measured.endpoint: TGI

compound | measured.endpoint | reading
Nc1nc(/C=C\c2ccc([N+](=O)[O-])s2)nc(N2CCCC2)n1 | TGI | 15.6 µM
N#Cc1c(N)n(-c2cccc(C(=O)O)c2)c(=O)c2cc([N+](=O)[O-])ccc12 | TGI | > 100 µM
NNC(=O)c1n[nH]nc1C(=O)NN | TGI | > 100 µM
Cc1ccc(/C=C/C(=O)c2sc(-c3nc(C)c(C(=O)/C=C/c4ccc(C)cc4)s3)nc2C)cc1 | TGI | > 100 µM
COc1ccc(S(=O)(=O)c2nnc(S(=O)(=O)Cc3ccccc3)s2)cc1 | TGI | 31.4 µM
Cc1c2c(C#N)nccc2c(C)c2c1c1ccccc1n2Cc1ccccc1 | TGI | > 100 µM
CN(C)CCCN1CCC2(CCC(C(C)(C)C)CC2)CC1 | TGI | 2.76 µM
CSc1nc(Nc2cccc(C(F)(F)F)c2)c2c(N)nn(C)c2n1 | TGI | > 100 µM
O=C(CC1(O)C(=O)N(Cc2ccccc2)c2ccc(F)cc21)c1ccc(C(=O)NCC2CCC3(CC2)OOC2(CCCCC2)OO3)cc1 (stereo not given) | TGI | 31.7 µM
COc1cc(C2c3cc4c(cc3OC3(OC)COC(=O)C23)OCO4)cc(OC)c1OC(C)=O (stereo not given) | TGI | > 100 µM

###

Tested on: EKVX NSCLC
method.notes: NCI tumour cell line growth inhibition, 48 h
Where a SMILES comes first, the peptide text is derived from it. The star is where a group is joined. Cbz = O=C(OCc1ccccc1)*; CH2Cl = ClC*
# Lookup of reported TGI keyed by entry

molecule | readout.relation | TGI (µM)
CC(C)CC(NC(=O)OCc1ccccc1)C(=O)NC(Cc1ccccc1)C(=O)CCl (stereo not drawn) (Cbz-Leu-Phe-CH2Cl; configuration not given here) | = | 34.5
C=C(C)[C@@H]1CC[C@]2(C)[C@H](CC=C3[C@@H]4CC(C)(C)CC[C@]4(C(N)=O)CC[C@]32C)[C@@]1(C)CCC#N | > | 100
O=C(CCc1n[nH]c(=S)o1)Nc1ccccc1C(F)(F)F | > | 100
CCOC(=O)NC(Nc1ccc(S(=O)(=O)Nc2nc(C)cc(C)n2)cc1)(C(=O)OCC)C(F)(F)F (centres undefined) | > | 100
CC12CC(c3ccccc3O1)C(C(=O)Nc1ccc(Cl)cc1Cl)C(=O)N2 (centres undefined) | = | 50.2
COc1cc2c(C)cc(O)cc2c2cc(O)c(C)cc12 | = | 22.6
Cc1[nH]nc(C(F)(F)F)c1N=NN1CCOCC1 | = | 21.3
CC(=O)c1c(C)n([O-])c2cc(Cl)c(Cl)cc2[n+]1=O | > | 100
COc1c(OC[C@H](O)CN2CCOCC2)ccc2c3n(c(=NC(=O)c4cccnc4C)nc12)CCN3 | > | 50
CN1CCN(C(=S)N2CCN(C)CC2)CC1 | > | 100
CCOC(=O)Nc1ccc(C)c(NC(=O)OCC)c1 | > | 100
COc1ccc(-c2nc3ccc(-c4nc5ccc(N6CCN(c7ccccc7)CC6)cc5[nH]4)cc3[nH]2)cc1OC | = | 5.07
C/C=C(/C)C(=O)O[C@@H]1CCN2CC[C@H](COC(=O)/C(=C/C)CO)C12 (some centres undefined) | > | 100
COc1ccc2c(c1)C(=O)c1c-2c(N2CCN(C(=O)CNCCNCCO)CC2)nc2ccccc12 | = | 19.7
NC(=O)C(C(N)=O)=C(O)C(=O)/C=C(\O)c1ccccc1 | > | 100
O=C(c1ccccc1Br)C(F)(F)F | > | 100
Nc1nc(SC/C=C/c2ccccc2)c2[nH]cnc2n1 | > | 100
CC(C)=CC[C@]12CCN[C@H]1N(S(=O)(=O)c1ccccc1)c1ccccc12 | = | 21.3
COc1cccc2c1C(=O)c1c(O)c3c(c(O)c1C2=O)C[C@](O)(C(=O)CO)C[C@H]3O[C@@H]1C[C@@H](NC(=O)CCCCCN(C)C2(c3ccc(F)cc3)CC3CCC2C3)[C@H](O)[C@@H](C)O1 (some centres undefined) | = | 17.7

###

System: SF-295 CNS
method.notes: NCI tumour cell line growth inhibition, 48 h
measured.endpoint: GI50

compound | reading
COc1c(OC[C@H](O)CN2CCOCC2)ccc2c3n(c(=NC(=O)c4cccnc4C)nc12)CCN3 | 541 nM
C#C[C@]1(O)CCC2C3CCc4cc(O)ccc4C3CC[C@@]21C (stereo partly specified) | 2700 nM
O=C(CC1(O)C(=O)N(Cc2ccccc2)c2ccc(F)cc21)c1ccc(C(=O)NCC2CCC3(CC2)OOC2(CCCCC2)OO3)cc1 (stereo unspecified) | 654 nM
Nc1c(C(=O)Nc2ccncc2)sc2nc3c(cc12)CCCCCCCC3 | 907 nM
Cc1nn(-c2ccc(Cl)cc2)c2nc3c(nc12)C(=O)c1ccccc1-3 | > 100000 nM
CS(=O)(=O)CCNCc1nc(-c2ccc3ncnc(Nc4ccc(OCc5cccc(C(F)(F)F)c5)cc4)c3c2)cs1 | 9450 nM
COc1cc(Cn2c(-c3ccccc3)c(Cl)c3c2-c2oncc2CC3)cc(OC)c1 | 3050 nM
COc1ccc(-c2nn(-c3ccc(NC(=O)c4ccc(Cl)c(Cl)c4)cc3)cc2-c2ccncc2)cc1Cl | 979 nM
Cc1ncc(C(=O)Nc2ccc(CN3CCN(C)CC3)c(C(F)(F)F)c2)cc1C#Cc1cnc(N)c2ccncc12 | 1230 nM
[Cl][Hg][c]1cc[c]([Hg][Cl])o1 | 19400 nM
O=C(c1ccccc1)c1cc2ccccc2o1 | 71700 nM
Cc1ccc(NC(=O)CC2CC2)cc1-c1ccc(C(=O)NCC2CC2)cc1 | > 25000 nM
CCCN1C(=O)N(CCC)C2C1NC(=S)N2/N=C/C=C/c1ccccc1OC (stereo unspecified) | 487 nM
COc1ccc(Nc2nnc(-c3cc(O)ccc3O)s2)cc1 | > 50000 nM
COc1ccc2[nH]cc(C3(c4c[nH]c5ccc(OC)cc45)C(=O)Nc4ccc(F)cc43)c2c1 | 1790 nM
CCn1c2ccccc2c2cc(NC(=O)Nc3ccc([N+](=O)[O-])cc3C)ccc21 | 2290 nM

###

Test system: EKVX NSCLC
method.notes: NCI tumour cell line growth inhibition, 48 h

molecule | TGI
CCOC(=O)CC[C@H](NC(=O)[C@H](N)Cc1ccc(N(CCCl)CCCl)cc1)C(=O)OCC | > 67.9 µM
O=C(CSc1nc2ccccc2nc1-c1ccccc1)Nc1ccc(F)cc1 | > 100 µM
O=C1/C(=C/c2ccc3c(c2)OCO3)SC2C=Nc3ccccc3N12 (configuration not stated) | > 100 µM
O=C1Nc2ccccc2/C1=N\[O-].O=C1Nc2ccccc2/C1=N\[O-].[Cu+2] | > 100 µM
CCCCCCOC(=O)/C=C/[C@]1(CO)C/C(=C/CC(C(C)C)C(C)C)C(=O)O1 | 13.4 µM
CC(=O)Oc1ccc2c(C)cc(=O)oc2c1OC(C)=O | > 100 µM
COc1cc2c(cc1OCCCNC(=O)c1cccc3c(=O)c4ccccc4[nH]c13)N=C[C@@H]1CCCN1C2=O | 0.14 µM
CCOC(=O)c1nnc2c(C(=O)OCC)c3ccccc3n2c1N | > 100 µM
C1CN2CCN3CCN4CCN1[P+]243 | > 100 µM
Cn1c(=O)c2c(nc(Cc3ccccc3)n2CC(=O)O)n(C)c1=O | > 100 µM
O=C(/C=C/c1cc2ccccc2o1)N1CCN(c2ccccn2)CC1 | > 100 µM
NC(=O)C12CC3CC(CC(F)(C3)C1)C2 | > 100 µM

###

Test system: SR leukemia
method.notes: NCI tumour cell line growth inhibition, 48 h
Where a SMILES comes first, the peptide text is derived from it. The star is where a group is joined. Cbz = O=C(OCc1ccccc1)*; CH2Cl = ClC*
measured.endpoint: TGI

compound | reading
CN(C)CCCN1CCC2(CCC(C(C)(C)C)CC2)CC1 | 4.85 µM
O=c1cnn(C/C=C/CO)c(=O)[nH]1 | > 100 µM
CC[C@H]1[C@@H]2C=C[C@@H]3[C@H]4C/C=C\C(=O)NCCC[C@@H]5NC(=O)/C(=C(O)/C=C/[C@@H]4C[C@@H]3[C@H]2C[C@H]1C)C5=O | 1.94 µM
O=Cc1[nH]c(=O)[nH]c(=O)c1C(=O)O | > 100 µM
CC#CCOC(=O)c1ccccc1OC(C)=O | > 100 µM
CCSc1ncnc2c1ncn2C1OC(CO)C(O)C1O (stereo not drawn) | > 100 µM
Clc1ccc(C2C3COc4ccccc4C3=NN2c2ccccc2)cc1 (stereo not drawn) | 1.78 µM
N#Cc1c(N)nc2n[nH]c(N)c2c1-c1ccc(Cl)cc1 | > 100 µM
O=C1/C(=C/c2ccccc2S)N=C(c2ccccc2)N1c1nc2c(Cl)cc(Cl)cc2s1 | 34 µM
CC(C)=CC[C@]12CCN[C@H]1N(S(=O)(=O)c1ccccc1)c1ccccc12 | 51 µM
C=CCCCCOc1ccccc1-c1cnc(OCCCCC=C)n1C | 13.7 µM
CN1CCOC(c2ccccc2)O1 (stereo not drawn) | > 100 µM
CC(CO)(CO)N1C(=O)C2C3C=CC(C3)C2C1=O (stereo not drawn) | > 100 µM
C/C=C(/C)C(=O)O[C@@H]1CCN2CC[C@H](COC(=O)/C(=C/C)CO)C12 (stereo partly drawn) | > 100 µM
CSc1ncnc2c1ncn2CCC(=O)OC(C)(C)C | > 100 µM
Cc1ccc(NC(=O)CC2CC2)cc1-c1ccc(C(=O)NCC2CC2)cc1 | > 25 µM
CCOc1ccccc1NC(=O)C(=O)CC(=O)c1sc(Nc2nnc(-c3ccc(Cl)c(Cl)c3)o2)nc1C | > 100 µM
CCOC(=O)CN1C(=O)c2ccc(NC(=O)C(=O)O)cc2S1(=O)=O | > 100 µM
COC1(OC)C(N(C)C)=C(Cl)C(=O)/C1=C/C=O | > 100 µM
O=C(/C=C/c1cc2ccccc2o1)N1CCN(c2ccccn2)CC1 | > 100 µM
CC(=O)Oc1ccc2c(C)cc(=O)oc2c1OC(C)=O | > 100 µM
CCOC(=O)c1nnc2c(C(=O)OCC)c3ccccc3n2c1N | > 100 µM
CC(C)CC(NC(=O)OCc1ccccc1)C(=O)NC(Cc1ccccc1)C(=O)CCl (stereo not drawn) (Cbz-Leu-Phe-CH2Cl; configuration not given here) | 4.66 µM
